Source listed as patent US8822517B2.

Catalogue of inhibition at 1 µM readings, one per entry.
subject-of-test: serotoninergic 5-HT1A receptor (Homo sapiens)
Sequence (P08908 whole entry): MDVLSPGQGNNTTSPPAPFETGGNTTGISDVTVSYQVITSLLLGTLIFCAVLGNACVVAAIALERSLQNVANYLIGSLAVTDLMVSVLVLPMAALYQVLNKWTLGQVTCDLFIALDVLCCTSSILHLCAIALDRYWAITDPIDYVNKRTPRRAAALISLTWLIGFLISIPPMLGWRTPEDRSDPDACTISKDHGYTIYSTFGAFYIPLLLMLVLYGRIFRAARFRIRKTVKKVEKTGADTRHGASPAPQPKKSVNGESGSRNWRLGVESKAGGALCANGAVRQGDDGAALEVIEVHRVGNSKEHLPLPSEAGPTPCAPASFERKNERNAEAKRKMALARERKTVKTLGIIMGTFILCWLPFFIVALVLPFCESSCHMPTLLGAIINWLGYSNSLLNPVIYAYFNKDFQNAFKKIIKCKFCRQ
assay-method-text: Binding assay 5-HT1A (h), [3H]8-OH-DPAT, HEK-293 cells
Parameters: expressed in transfected cells; host or cells: HEK-293 cells
protocol-conditions: read-out: 5-HT1A
Description: The specific ligand binding to the receptors is defined as the difference between the total binding and the nonspecific binding determined in the presence of an excess of so unlabelled ligand. The specific Ligand binding to the receptor is defined as the difference between total and non-specific binding determined in the presence of an excess of unlabelled ligand. The compounds were tested at a concentration of 1×10^−6 M, and scintillation counting was the method of detection of ligand binding.
Reply numerically in %, unit not repeated.

Below are worked cases with known answers.
- compound: "O=S(=O)(NCCN1CCC(c2noc3cc(F)ccc23)CC1)c1ccc2ccccc2c1 [Compound 24]"
  inhibition at 1 µM [%]: 80
- compound: "O=S(=O)(NCCCN1CCC(c2noc3cc(F)ccc23)CC1)c1ccc(Br)cc1 [Compound 330]"
  inhibition at 1 µM [%]: 67
- compound: "O=S(=O)(NCCCN1CCC(c2noc3cc(F)ccc23)CC1)c1ccc(Cl)s1 [Compound 341]"
  inhibition at 1 µM [%]: 74
- compound: "O=S(=O)(NCCCN1CCN(c2nsc3ccccc23)CC1)c1ccc(Cl)cc1 [Compound 250]"
  inhibition at 1 µM [%]: 98

-- ask I have this compound here, O=S(=O)(NCCCCN1CCN(c2cccc3[nH]ccc23)CC1)c1ccc(C(F)(F)F)cc1 [Compound 360] , and I need its recorded inhibition at 1 µM.
-- reply 83

-- ask I have this compound here, CC(C)(C)c1ccc(S(=O)(=O)NCCCCN2CCC(c3noc4cc(F)ccc34)CC2)cc1 [Compound 301] , and I need its recorded inhibition at 1 µM.
-- reply 77

-- ask I have this compound here, O=S(=O)(NCCCCN1CCC(c2noc3cc(F)ccc23)CC1)c1ccc(OC(F)(F)F)cc1 [Compound 304] , and I need its recorded inhibition at 1 µM.
-- reply 60

-- ask I have this compound here, O=S(=O)(NCCCCN1CCN(c2nsc3ccccc23)CC1)c1ccc2c(c1)OCO2 [Compound 245] , and I need its recorded inhibition at 1 µM.
-- reply 99
